# Test system: THP1‐NTR^+ cells
# procedureSummary: CD86-based cell assay
# experimentalParameters: Homo sapiens, 72 h, read-out: THP1‐NTR^+ CD86^+ EC50
# reported EC50; entries follow
The response must be a number in µM with no trailing unit.

| molecule | metric | testValue |
| --- | --- | --- |
| COc1ncccc1CN[C@@H]1C[C@H]1c1ccccc1 (racemic) [1 a, reference compound] | EC50 | 0.0041 |

Please look at the following molecule next.
EC50 reported for this molecule COc1ncccc1CN[C@H]1[C@@H](C)[C@@H]1c1ccccc1 (relative stereo) : 15.3

Cited source for all entries: paper PMC7497180
